Every entry's value here was drawn from patent US20260209345A1.

# target: T1, recombinant LILRB1 ECD (human, UniProt Q8NHL6 24-461)
# T1 construct: also called biotinylated LILRB1 ECD
# T1 sequence (Q8NHL6 24-461 limits assumed): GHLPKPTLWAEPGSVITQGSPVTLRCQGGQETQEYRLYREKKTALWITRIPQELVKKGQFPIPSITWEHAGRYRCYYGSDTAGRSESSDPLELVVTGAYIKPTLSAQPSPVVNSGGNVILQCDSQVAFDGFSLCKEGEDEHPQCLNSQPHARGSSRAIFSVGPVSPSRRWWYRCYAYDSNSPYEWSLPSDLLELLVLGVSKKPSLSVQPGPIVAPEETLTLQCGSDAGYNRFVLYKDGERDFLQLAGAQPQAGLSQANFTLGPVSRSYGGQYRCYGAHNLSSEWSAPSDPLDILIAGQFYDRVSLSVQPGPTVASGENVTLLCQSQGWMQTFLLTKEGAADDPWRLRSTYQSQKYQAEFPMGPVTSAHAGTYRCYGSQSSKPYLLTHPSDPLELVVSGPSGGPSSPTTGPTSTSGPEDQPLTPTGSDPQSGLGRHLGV
# experiment-description: ELISA, LILRB1 ECD binding to HLA-G-Fc
measurement-label: IC50 (nM)
Just the number in nM, nothing appended.

Prompt: Need IC50, item A-011 (antibody, V domains shown, tested as IgG) VH: QVQLVQSGAEVKKPGSSVKVSCKASGGSFSHSAFSWVRQAPGQGLEWMGSIIPAFYTANYAQKFQGRVTITADESTSTAYMELSSLRSEDTAVYYCAKDLGTYSSGWPYYYGMDVWGQGTTVTVSS VL: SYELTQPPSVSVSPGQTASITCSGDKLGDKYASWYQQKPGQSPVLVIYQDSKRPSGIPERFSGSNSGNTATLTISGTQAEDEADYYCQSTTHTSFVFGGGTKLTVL
Response: 6.1

Prompt: Another binder to check: A-024 (antibody, V domains shown, tested as IgG) VH: QVQLVQSGAEVKKPGSSVKVSCKASGYTFTGSAMSWVRQAPGQGLEWMGGILPIFGTSVYAQKFQGRVTITADESTSTAYMELSSLRSEDTAVYYCAKGPPVGSSSWYTDWYFDLWGRGTLVTVSS VL: SYELTQPPSVSVSPGQTASITCSGDKLGDKYASWYQQKPGQSPVLVIYQDSKRPSGIPERFSGSNSGNTATLTISGTQAEDEADYYCLSYGAHSHGVVFGGGTKLTVL
Response: 3.9

Prompt: Another binder to check: A-006 (antibody, V domains shown, tested as IgG) VH: QVQLVQSGAEVKKPGSSVKVSCKASGGTFSQYAFSWVRQAPGQGLEWMGSIIPGFTTSNYAHKFQGRVTITADESTSTAYMELSSLRSEDTAVYYCAKDLGTYSSGWPYYYGMDVWGQGTTVTVSS VL: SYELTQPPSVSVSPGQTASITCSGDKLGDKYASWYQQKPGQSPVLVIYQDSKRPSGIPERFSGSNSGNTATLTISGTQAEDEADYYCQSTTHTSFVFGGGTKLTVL
Response: 6.1

Prompt: Another binder to check: A-038 (antibody, V domains shown, tested as IgG) VH: QVQLVQSGAEVKKPGSSVKVSCKASGGTFSSYAISWVRQAPGQGLEWMGGIIPIFGTANYAQKFQGRVTITADESTSTAYMELSSLRSEDTAVYYCAKGPPVGSSSWYTDWYFDLWGRGTLVTVSS VL: SYELTQPPSVSVSPGQTASITCSGDKLGDKYASWYQQKPGQSPVLVIYQDSKRPSGIPERFSGSNSGNTATLTISGTQAEDEADYYCSLYGAGHTVVFGGGTKLTVL
Response: 2.2

Prompt: Another binder to check: A-025 (antibody, V domains shown, tested as IgG) VH: QVQLVQSGAEVKKPGSSVKVSCKASGYTFSKSAMSWVRQAPGQGLEWMGGIVPKFHTSVYAQKFQGRVTITADESTSTAYMELSSLRSEDTAVYYCAKGPPVGSSSWYTDWYFDLWGRGTLVTVSS VL: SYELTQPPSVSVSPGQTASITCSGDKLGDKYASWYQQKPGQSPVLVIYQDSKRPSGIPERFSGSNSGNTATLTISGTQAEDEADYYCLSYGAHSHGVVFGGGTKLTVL
Response: 5.1
